Origin of measurements: the supplement of paper PMC10567573

B1: ZNF277 (parent)
chain: ILREELQKQRLREILEQQQQERND

Variants of: B1
Assay: protein stability index of a GFP-peptide fusion (GPS, HEK-293T) (PSI 1-6); higher = more stable;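 also: lentivirally expressed fusions sorted by FACS into six bins by GFP to DsRed ratio, PSI derived from sequencing read proportions per bin multiplied by bin number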
Conditions: c terminus: a fixed tail appended
Measured quantity: protein stability index
// return a plain number; no unit text

Given Q9S , state its recorded protein stability index. 4.41

Given I14R , state its recorded protein stability index. 3.49

Given E4Y , state its recorded protein stability index. 3.38

Given L11R , state its recorded protein stability index. 4.37

Given R22E , state its recorded protein stability index. 4.61
